Below, each entry is listed alongside its reported Activity (c.p.m. 50ul-1).
target: Human immunodeficiency virus type 1 reverse transcriptase (Human immunodeficiency virus 1) (UniProt Q72547); assay: Compound ability to inhibit the production of HIV reverse transcriptase (RT) in culture supernatant of monocytic U937 on at 11 days at a concentration 1 uM; format: functional
Give only the figure.

Some molecules with known Activity (c.p.m. 50ul-1) results, for comparison:
molecule	Activity (c.p.m. 50ul-1)
Cc1cn([C@H]2C[C@H](N=[N+]=[N-])[C@@H](COP(=O)(O)OC[C@H]3OC(O)[C@H](O)[C@@H](O)[C@@H]3O)O2)c(=O)[nH]c1=O (some centres undefined)	145000
CCCCCCCCCCCCCCCCOP(=O)(OC[C@H]1OC(O)[C@@H](O)[C@@H](O)[C@@H]1O)OC[C@H]1OC(n2cc(C)c(=O)[nH]c2=O)C[C@@H]1N=[N+]=[N-] (some centres undefined)	225000

Q: State the recorded Activity (c.p.m. 50ul-1) for this entry: CCCCCCCCCCCCCCCCOP(=O)(OC[C@H]1OC(O)[C@H](O)[C@@H](O)[C@@H]1O)OC[C@H]1OC(n2cc(C)c(=O)[nH]c2=O)C[C@@H]1N=[N+]=[N-] (some centres undefined)
A: 68000

Q: Another molecule to look at: Cc1cn([C@H]2C[C@H](N=[N+]=[N-])[C@@H](COP(=O)(O)OC[C@H]3OC(O)[C@@H](O)[C@@H](O)[C@@H]3O)O2)c(=O)[nH]c1=O (some centres undefined)
A: 137000
